- study_target: androgen receptor (AR-LBD) (Rattus norvegicus, UniProt P15207)
- Construct: 5 μL of 2×AR-LBD/Fluoromone AL Red Complex contained in the kit; purchased Invitrogen
- Sequence (P15207 651-882 limits assumed): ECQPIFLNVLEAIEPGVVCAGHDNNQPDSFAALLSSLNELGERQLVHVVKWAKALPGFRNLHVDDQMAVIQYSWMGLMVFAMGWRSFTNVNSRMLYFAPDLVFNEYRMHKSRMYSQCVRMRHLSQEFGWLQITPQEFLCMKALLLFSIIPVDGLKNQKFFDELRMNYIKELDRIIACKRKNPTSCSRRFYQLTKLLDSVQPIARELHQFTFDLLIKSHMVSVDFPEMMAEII
- measurement_notes: Evaluation of androgen receptor affinity (PolarScreen Androgen Receptor Competitor Assay Kit, Red; fluorescence polarization)
- applied_conditions: 22° C. for 5 hours, relative to binding rate of 1 μM DHT, read-out: AR affinity (pEC50) (converted)
observed_property: EC50 (nM)

                                   molecule                              study_target  unit_of_measure  observed_result
0  Cc1sc(N(CCC2CCCCC2)Cc2ccccc2)nc1C(=O)NS(C)(=O)=O [Example 298]  androgen receptor (AR-LBD) (Rattus norvegicus, UniProt P15207)               nM              100
1  COCCCS(=O)(=O)NC(=O)c1nc(N(CCc2ccc(OC(F)(F)F)cc2)Cc2nc(C3CC3)no2)oc1C [Compound 563]  androgen receptor (AR-LBD) (Rattus norvegicus, UniProt P15207)               nM             79.4
2  Cc1sc(N(CCOc2ccccc2)c2ccc(C#N)cc2)nc1C(=O)NS(C)(=O)=O [Compound 20]  androgen receptor (AR-LBD) (Rattus norvegicus, UniProt P15207)               nM             63.1
3  Cc1oc(N(Cc2ccc(OC(F)(F)F)cc2)c2ccc(C#N)cc2)nc1C(=O)NS(C)(=O)=O [Compound 607]  androgen receptor (AR-LBD) (Rattus norvegicus, UniProt P15207)               nM             39.8
4  Cc1sc(N(Cc2ccc(C(F)F)cc2)c2ccc(C#N)cc2)nc1C(=O)NS(C)(=O)=O [Compound 94]  androgen receptor (AR-LBD) (Rattus norvegicus, UniProt P15207)               nM             39.8

1: CCc1oc(N(Cc2ccc(Br)c(Cl)c2)c2ccc(C#N)cc2)nc1C(=O)NS(C)(=O)=O [Compound 650]
2: Cc1sc(N(Cc2ccsc2)c2ccc(C#N)cc2)nc1C(=O)NS(C)(=O)=O [Compound 85]
3: Cc1sc(N(Cc2ccccc2)c2ccc3ncsc3c2)nc1C(=O)NS(C)(=O)=O [Compound 335]
Arrange the 3 molecules from largest to smallest EC50. # output: labels, in the requested order 3, 2, 1
(3: 631 nM, 2: 200 nM, 1: 31.6 nM)

A: Cc1sc(N(Cc2ccc(C(F)(F)F)cc2)c2ccc(C#N)cc2)nc1C(=O)NS(C)(=O)=O [Compound 46]
B: Cc1sc(N(Cc2ccoc2)c2ccc(C#N)cc2)nc1C(=O)NS(C)(=O)=O [Compound 86]
Which of these two has the smaller recorded EC50: A or B ? Give the label of your selection. A
